Quick reference for Herbicidal activity, Morningglory among some molecules
System: morningglory
Assay: Test Example 4, pre-emergence treatment, herbicidal activity; further: ranges in brackets are in %
Assay type: in vivo
Conditions: 2.5 g/are, 20 days

{"molecule": "COc1cc(N2C(=O)C3=C(CCCC3)C2=O)c(F)cc1Cl", "obs-value": "4 (1-10)"}
{"molecule": "CCOc1cc(N2C(=O)C3=C(CCCC3)C2=O)c(F)cc1Cl", "obs-value": "4 (1-10)"}
{"molecule": "CCCOc1cc(N2C(=O)C3=C(CCCC3)C2=O)c(F)cc1Cl", "obs-value": "4 (1-10)"}

Which Herbicidal activity, Morningglory reading was recorded for the molecule O=C1C2=C(CCCC2)C(=O)N1c1ccc(Cl)cc1F [A, reference compound] ?
1 (41-60)

* * *

Each entry below carries its recorded Phytotoxicity, Soybean.
Test system: soybean
Test: Test Example 4, pre-emergence treatment, phytotoxicity to soybean; further: ranges in brackets are in %
Assay type: in vivo
Conditions: 10 g/are, 20 days

Example cases with answers are listed next.
{"compound": "COc1cc(N2C(=O)C3=C(CCCC3)C2=O)c(F)cc1Cl", "system": "soybean", "Phytotoxicity, Soybean": "0 (100)"}
{"compound": "CCOc1cc(N2C(=O)C3=C(CCCC3)C2=O)c(F)cc1Br", "system": "soybean", "Phytotoxicity, Soybean": "1 (90-99)"}
{"compound": "CCCOc1cc(N2C(=O)C3=C(CCCC3)C2=O)c(F)cc1Br", "system": "soybean", "Phytotoxicity, Soybean": "1 (90-99)"}
{"compound": "CCOc1cc(N2C(=O)C3=C(CCCC3)C2=O)c(F)cc1Cl", "system": "soybean", "Phytotoxicity, Soybean": "0 (100)"}
{"compound": "COc1cc(N2C(=O)C3=C(CCCC3)C2=O)c(F)cc1Br", "system": "soybean", "Phytotoxicity, Soybean": "0 (100)"}

Now examine the next entry.
# input compound: CCC(C)Oc1cc(N2C(=O)C3=C(CCCC3)C2=O)c(F)cc1Br (stereo not drawn) ; wanted: its Phytotoxicity, Soybean
1 (90-99)

* * *

Tested on: Johnsongrass
Assay: Test Example 4, pre-emergence treatment, herbicidal activity; further: ranges in brackets are in %
Assay type: in vivo, Sorghum halepense
Conditions: 2.5 g/are, 20 days
Description: […]
The reader will find reported Herbicidal activity, Johnsongrass values listed item by item below.

These solved cases illustrate the format of a correct answer.
{"molecule": "COc1cc(N2C(=O)C3=C(CCCC3)C2=O)c(F)cc1Br", "system": "Johnsongrass", "parameter": "Herbicidal activity, Johnsongrass", "obs-value": "5 (0)"}
{"molecule": "CCOc1cc(N2C(=O)C3=C(CCCC3)C2=O)c(F)cc1Br", "system": "Johnsongrass", "parameter": "Herbicidal activity, Johnsongrass", "obs-value": "4 (1-10)"}
{"molecule": "CCC(C)Oc1cc(N2C(=O)C3=C(CCCC3)C2=O)c(F)cc1Br (centres unmarked)", "system": "Johnsongrass", "parameter": "Herbicidal activity, Johnsongrass", "obs-value": "4 (1-10)"}
{"molecule": "CCCOc1cc(N2C(=O)C3=C(CCCC3)C2=O)c(F)cc1Br", "system": "Johnsongrass", "parameter": "Herbicidal activity, Johnsongrass", "obs-value": "4 (1-10)"}
{"molecule": "CCOc1cc(N2C(=O)C3=C(CCCC3)C2=O)c(F)cc1Cl", "system": "Johnsongrass", "parameter": "Herbicidal activity, Johnsongrass", "obs-value": "4 (1-10)"}
{"molecule": "CCCOc1cc(N2C(=O)C3=C(CCCC3)C2=O)c(F)cc1Cl", "system": "Johnsongrass", "parameter": "Herbicidal activity, Johnsongrass", "obs-value": "4 (1-10)"}

Request body: readout Herbicidal activity, Johnsongrass, system Johnsongrass, query `COc1cc(N2C(=O)C3=C(CCCC3)C2=O)c(F)cc1Cl` . Return the value.
5 (0)

Another molecule: O=C1C2=C(CCCC2)C(=O)N1c1ccc(Cl)cc1F [A, reference compound]
1 (41-60)
